These entries and their values trace back to patent US20070213359A1.

- tested.system: Ghrelin receptor (Homo sapiens, UniProt Q92847)
- Sequence (Q92847 whole entry): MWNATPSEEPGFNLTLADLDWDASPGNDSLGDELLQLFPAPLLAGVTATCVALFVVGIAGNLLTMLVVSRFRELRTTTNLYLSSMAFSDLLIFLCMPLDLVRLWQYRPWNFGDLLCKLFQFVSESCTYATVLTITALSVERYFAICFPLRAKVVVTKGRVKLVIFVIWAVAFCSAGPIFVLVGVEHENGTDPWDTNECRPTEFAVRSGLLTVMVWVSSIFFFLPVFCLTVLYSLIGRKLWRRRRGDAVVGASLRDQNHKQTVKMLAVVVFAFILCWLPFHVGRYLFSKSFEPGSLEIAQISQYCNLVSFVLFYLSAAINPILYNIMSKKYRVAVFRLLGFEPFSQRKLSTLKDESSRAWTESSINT
- assay.comment: Receptor Selection and Amplification Technology (R-SAT) assay
- Type: cell-based
- Design: expressed in transfected cells; host or cells: NIH3T3
- condition.info: read-out: RSAT Eff(%)
Classify by measured Emax: Y if it is equal to or exceeds 90%, N if it is smaller.

INSERT INTO measurements (molecule, label) VALUES
  ('CC(=O)c1cn(CCCN2C3CCC2CC(Oc2ccccc2Cl)C3)c2c(Br)cccc12 (stereo not shown)', 'N'),
  ('CC(=O)c1cn(CCCCN2CCC(Oc3ccccc3Cl)CC2)c2ccccc12', 'N'),
  ('COc1cccc2c(C(=O)NCC(C)C)cn(CCCN3CCC(c4nc5ccccc5s4)CC3)c12 [drawing 234]', 'Y'),
  ('COc1cccc2c(C(C)=O)cn(CCCN3CCC(Oc4ccc(F)cc4)CC3)c12 [drawing 256]', 'Y');
